Measured MIC by item
system: S. agalactiae (group B) ATCC 12400; assay: MIC, microdilution method (9.1); type: cell-based, Streptococcus agalactiae; details: Streptococcus agalactiae, ATCC12400, 18 h, read-out: MIC
Kindly answer with a numeric value in µg/mL, unit omitted.

Answered cases to consult:
- molecule: "CC(C)(C)OC(=O)NCC(NC(=O)c1cccnc1)c1c[nH]c2ccc(Br)cc12 (centres unmarked)"
  testSystem: "S. agalactiae (group B) ATCC 12400"
  attributeMeasured: "MIC"
  measuredValue: 128
- molecule: "O=C(NC(C(=O)NCCCCO)c1c[nH]c2ccc(Br)cc12)c1c[nH]c2ccc(Br)cc12 (centres unmarked)"
  testSystem: "S. agalactiae (group B) ATCC 12400"
  attributeMeasured: "MIC"
  measuredValue: 64
- molecule: "CC(C)(C)OC(=O)NCC(NC(=O)c1c[nH]c2cc(Br)ccc12)c1c[nH]c2cc(Br)ccc12 (centres unmarked)"
  testSystem: "S. agalactiae (group B) ATCC 12400"
  attributeMeasured: "MIC"
  measuredValue: 32

Qu. Given the molecule CC(C)(C)OC(=O)NCC(NC(=O)c1c[nH]c2ccc(Br)cc12)c1c[nH]c2cc(Br)ccc12 (centres unmarked) , write its reported MIC.
Ans. 32

Qu. Report measured MIC; entry is O=C(NC(C(=O)NCCO)c1c[nH]c2ccc(Br)cc12)c1c[nH]c2ccc(Br)cc12 (centres unmarked)
Ans. 64

Qu. Return MIC for the following molecule: CC(C)(C)OC(=O)NCC(NC(=O)c1c[nH]c2ccccc12)c1c[nH]c2cc(Br)ccc12 (centres unmarked)
Ans. 64

Hello, the source for this data is patent US9676715B2, in case you need it.
